- assayInfo: Acute toxicity, intravenous LD50 (method of Miller and Tainter)
- Parameters: species or system souris
- cond: mouse, in vivo, read-out: DL50/24 H/kg de poids corporel
Mark TRUE only for LD50 at 24 h values smaller than 100 mg/kg; exact matches and larger values are FALSE.

Sample answers from the record:
| compound | answerLabel |
| --- | --- |
| O=C(c1cc2sccc2cn1)N1CCCCC1 | FALSE |
| CCN(CC)CCNC(=O)c1cc2sccc2cn1 | TRUE |
| CNC(=O)c1cc2sccc2cn1 | FALSE |
| O=C(NCc1ccncc1)c1cc2sccc2cn1 | TRUE |

## Task hey, is LD50 at 24 h for O=C(c1cc2sccc2cn1)N1CCCC1 lower than 100 mg/kg or not?
## Result FALSE

## Task What do you get for NC(=O)c1cc2sccc2cn1 [Dérivé 31, carbamoyl-6 thiéno [3,2-C] pyridine] ?
## Result FALSE

## Task What do you get for O=C(c1cc2sccc2cn1)N1CCOCC1 ?
## Result FALSE

## Task What do you get for O=C(NCc1cccnc1)c1cc2sccc2cn1 ?
## Result TRUE

## Task What do you get for CN(C)CCNC(=O)c1cc2sccc2cn1 ?
## Result TRUE
